- Test system: NCI-H23 lung
- MEASUREMENT_PROTOCOL: NCI tumour cell line growth inhibition, 48 h
READOUT_LABEL: TGI

[ask] Note TGI for the compound shown: CCCCC1Cc2cc(OC)ccc2-c2n1c1cc(OC)ccc1[n+]2C (stereo not given) (tested in a mixture with another compound)
[reply] > 39.9 µM

[ask] Note TGI for the compound shown: CC(N)=O.[Cl][Pt][Cl].[NH-]c1ccn(C2OC(CO)C(O)C2O)c(=O)n1 (stereo not given)
[reply] > 100 µM

[ask] Note TGI for the compound shown: COC(=O)[C@]1(C)CCCC2(C)C3=C(CCC21)CC1(CC3)SCCS1 (stereo not given in full)
[reply] > 10 µM

[ask] Note TGI for the compound shown: Cc1csc(CCC(N)C(=O)O)n1 (stereo not given)
[reply] > 100 µM

[ask] Note TGI for the compound shown: CC(C)=NNc1ncnc2nc[nH]c12
[reply] > 100 µM

* * *

- Test system: SW-620 colon
- MEASUREMENT_PROTOCOL: NCI tumour cell line growth inhibition, 48 h
READOUT_LABEL: TGI

[ask] Note TGI for the compound shown: Nc1c(C(=O)Nc2ccccc2O)[n+]([O-])c2ccccc2[n+]1[O-]
[reply] 48.6 µM

[ask] Note TGI for the compound shown: Clc1ccc(Cn2cc(/C=N/n3cnnc3)c3ccccc32)cc1
[reply] > 100 µM

[ask] Note TGI for the compound shown: CSC1(Cc2ccccn2)C(=O)Nc2cccc([N+](=O)[O-])c21 (configuration not stated)
[reply] > 100 µM

[ask] Note TGI for the compound shown: CC(C)C/C(=N\NC(=O)c1ccncc1)c1cc(Cl)ccc1O
[reply] > 100 µM

[ask] Note TGI for the compound shown: COc1cccc(/C=N/[N-]C(N)=O)c1[O-].[OH3+].[Pd+2]
[reply] > 100 µM

[ask] Note TGI for the compound shown: Cn1c(CC(O)c2nc3ccccc3n2C)nc2ccccc21 (configuration not stated)
[reply] > 47 µM

[ask] Note TGI for the compound shown: NCC(Cc1ccccc1)P(=O)(O)O (configuration not stated)
[reply] > 100 µM

[ask] Note TGI for the compound shown: CCCCOCCOCCOC1=C(Cl)C(=O)c2c(O)ccc(O)c2C1=O
[reply] 1.75 µM

[ask] Note TGI for the compound shown: O=[N+]([O-])c1ccc(/C=C\c2ccc3c(c2)OCO3)c([N+](=O)[O-])c1
[reply] 41.6 µM

[ask] Note TGI for the compound shown: COc1cc2c(cc1OC)C(SC)C(=O)N(Cc1cccc(OC)c1OC)CC2 (configuration not stated)
[reply] > 100 µM

[ask] Note TGI for the compound shown: CC(=O)Oc1ccc(/C=C/C(=O)NCCOC(=O)/C=C/c2ccc(OC(C)=O)c(OC(C)=O)c2)cc1OC(C)=O
[reply] 61.8 µM

[ask] Note TGI for the compound shown: Cc1n(Cc2ccc3ccccc3n2)cc[n+]1Cc1ccc2ccccc2c1
[reply] 13.3 µM

[ask] Note TGI for the compound shown: N=C(N)c1ccc(N=Nc2c(O)ccc3cc(O)ccc23)cc1
[reply] > 100 µM

[ask] Note TGI for the compound shown: CCc1c(C#N)c(SC(C(N)=O)c2ccccc2)nc(N2CCC(N)CC2)c1C#N (configuration not stated)
[reply] 29.6 µM

[ask] Note TGI for the compound shown: Cc1cc(OC(=O)c2c(C)cc(OC(=O)c3c(C)cc(O)cc3O)cc2O)cc(O)c1C(=O)O
[reply] > 100 µM

[ask] Note TGI for the compound shown: c1ccc2c(c1)[O][Sn][O]2
[reply] > 150 µg/mL

[ask] Note TGI for the compound shown: O=S(=O)(O)c1ccc2c(N=Nc3c(O)ccc4ccccc34)cccc2c1
[reply] > 100 µM

[ask] Note TGI for the compound shown: O=C(/C=C\c1ccc(/C=C/C(=O)Nc2cccc(C3=NCCCN3)c2)cc1)Nc1cccc(C2=NCCCN2)c1
[reply] > 100 µM

[ask] Note TGI for the compound shown: CC(C)=CC(=O)CC(=O)C(=O)NCCNC(=O)C(=O)CC(=O)C=C(C)C
[reply] > 50 µM

[ask] Note TGI for the compound shown: O=C1c2ccccc2/C=C\C(c2ccccc2)=N/N1c1ccccc1Cl
[reply] > 100 µM

[ask] Note TGI for the compound shown: COc1ccc2c3c(c(C(=O)O)oc13)C(CCC(=O)O)CC2 (configuration not stated)
[reply] > 100 µM

[ask] Note TGI for the compound shown: Clc1cccc(C2SCc3nc4ccccc4n32)c1 (configuration not stated)
[reply] > 100 µM

[ask] Note TGI for the compound shown: O=C1CC(=O)NC(=NN2C(=O)/C(=C/c3ccc(Cl)cc3)N=C2c2ccccc2)N1
[reply] 31.9 µM

[ask] Note TGI for the compound shown: O[C@]12c3ccccc3C1CCCCC2N1CCOCC1 (some centres not stated)
[reply] > 100 µM

[ask] Note TGI for the compound shown: Cc1cc(OC(=O)Nc2ccc(Cl)cc2)ccc1C(=S)Nc1ccccc1
[reply] > 100 µM

[ask] Note TGI for the compound shown: CC(=O)Nc1sccc1S(=O)(=O)c1ccc(Cl)cc1
[reply] > 100 µM

[ask] Note TGI for the compound shown: Cc1cc(NS(=O)(=O)c2ccc(NC(=O)c3ccc4nc5ccccc5c(Nc5ccc(S(=O)(=O)Nc6cc(C)on6)cc5)c4c3)cc2)no1
[reply] > 50 µM

[ask] Note TGI for the compound shown: CCOC(=O)[C@H]1Nc2c(cccc2[N+](=O)[O-])C2c3ccccc3CC21 (some centres not stated)
[reply] > 100 µM

[ask] Note TGI for the compound shown: CC(=O)Oc1ccc2cc(Oc3ccccc3)c(=O)oc2c1
[reply] > 100 µM

[ask] Note TGI for the compound shown: CCOC(=O)C1=CSC2=NC3=C(CCC/C3=C\c3cc(OC)c(OC)c(OC)c3)C(c3cc(OC)c(OC)c(OC)c3)N12 (configuration not stated)
[reply] > 100 µM

[ask] Note TGI for the compound shown: Cc1ccc(C(=O)N2C/C(=C/c3ccccc3)C(=O)/C(=C/c3ccccc3)C2)cc1
[reply] > 59.3 µM

[ask] Note TGI for the compound shown: O=C1NC2=NN=C(c3ccc(Br)cc3)CN2NC12c1ccccc1-c1ccccc12
[reply] > 100 µM

[ask] Note TGI for the compound shown: Cc1cc(C)c(S(=O)(=O)N(CCCN)OCCCN)c(C)c1
[reply] > 100 µM

[ask] Note TGI for the compound shown: CCOC(=O)C1=C(C)N(Cc2ccc(Cl)cc2Cl)[C@]2(C#N)C(O)=C(Cl)C(Cl)=C(O)[C@]12C#N
[reply] 82.9 µM

[ask] Note TGI for the compound shown: Oc1ccc(-c2[nH]c3ccccc3c2-c2nc3ccccc3o2)cc1
[reply] 13.4 µM

[ask] Note TGI for the compound shown: CC(=O)c1sc2c(c1O)c(=O)n(-c1ccccc1)c(=S)n2-c1ccccc1
[reply] > 100 µM

[ask] Note TGI for the compound shown: CC1=C(C(=O)CC(=O)C(=O)Nc2ccccc2C)Sc2ccccc2N1
[reply] > 54.1 µM

[ask] Note TGI for the compound shown: CSc1nc(C)c(CCOC(C)=O)c(N=P(c2ccccc2)(c2ccccc2)c2ccccc2)n1
[reply] > 10 µM

[ask] Note TGI for the compound shown: COc1cc(S(=O)(=O)Nc2ccc(-c3csc(/N=C\c4cccs4)n3)cc2)ccc1Cl
[reply] > 100 µM

[ask] Note TGI for the compound shown: O=C1c2ccccc2-c2c1c1ccc([N+](=O)[O-])cc1c(=O)n2CCCCl
[reply] > 100 µM

[ask] Note TGI for the compound shown: COC(=O)c1ccccc1/C=C1\Cc2ccc3ccccc3c2C1C (configuration not stated)
[reply] > 100 µM

[ask] Note TGI for the compound shown: O=C1Nc2ccccc2C1S(=O)(=O)c1ccccc1 (configuration not stated)
[reply] > 100 µM

* * *

- System: CAKI-1 renal
- MEASUREMENT_PROTOCOL: NCI tumour cell line growth inhibition, 48 h
READOUT_LABEL: TGI

[ask] Report the value of TGI obtained on CAKI-1 renal for CCOC(=O)[C@H]1Nc2c(cccc2[N+](=O)[O-])C2c3ccccc3CC21 (stereo partly drawn) .
[reply] > 100 µM

[ask] Report the value of TGI obtained on CAKI-1 renal for CCOC(=O)C(C)(Cc1ccc(O)cn1)NC(=O)c1ccccc1 (stereo not drawn) .
[reply] > 100 µM

[ask] Report the value of TGI obtained on CAKI-1 renal for CSc1nc(C)c(CCOC(C)=O)c(N=P(c2ccccc2)(c2ccccc2)c2ccccc2)n1 .
[reply] > 10 µM

[ask] Report the value of TGI obtained on CAKI-1 renal for Clc1ccc(Cn2cc(/C=N/n3cnnc3)c3ccccc32)cc1 .
[reply] > 100 µM

[ask] Report the value of TGI obtained on CAKI-1 renal for O=C(O)Cc1ccc(Oc2nc3ccccc3nc2-c2ccccc2)cc1 .
[reply] > 100 µM

[ask] Report the value of TGI obtained on CAKI-1 renal for CC1=C2CC(C)(C)CC(=O)C2(C)CCC1=O (stereo not drawn) .
[reply] > 100 µM

[ask] Report the value of TGI obtained on CAKI-1 renal for CN(C)c1ccc2c(c1)OC(N)=C(C#N)C2c1ccc2c(c1)CCCN2C (stereo not drawn) .
[reply] > 100 µM

[ask] Report the value of TGI obtained on CAKI-1 renal for CCN(CC)Cc1ccc(Nc2c3ccccc3nc3ccccc23)cc1 .
[reply] 4.66 µM

[ask] Report the value of TGI obtained on CAKI-1 renal for Cc1ccc(O)cc1Nc1ccnc2cc(-c3ccccn3)ccc12 .
[reply] 4.36 µM

[ask] Report the value of TGI obtained on CAKI-1 renal for Clc1cccc2[nH]ncc12 .
[reply] > 100 µM

[ask] Report the value of TGI obtained on CAKI-1 renal for NC(N)=N/N=C\c1c(-c2ccccc2)nc2sccn12 .
[reply] 29.6 µM

[ask] Report the value of TGI obtained on CAKI-1 renal for O=CC(O)C(O)C(OC1OC(CO)C(O)C(O)C1O)C(O)CO (stereo not drawn) (tested in a mixture with another compound) .
[reply] > 100 µM

[ask] Report the value of TGI obtained on CAKI-1 renal for COc1cccc(N2C(=O)C3CC(CC(C)(C)C)c4c([nH]c5ccccc45)C3C2=O)c1 (stereo not drawn) .
[reply] > 10 µM

[ask] Report the value of TGI obtained on CAKI-1 renal for O=C(Nc1nc2c(s1)CCc1c-2c(Br)n(Cc2ccccc2)c1Br)c1ccccc1 .
[reply] > 100 µM

[ask] Report the value of TGI obtained on CAKI-1 renal for CC(=O)O[C@H]1C[C@H]2[C@@H]([C@H](OC(C)=O)C[C@@H]3CC4(CC[C@@]32C)OOC2(CCCCC2)OO4)[C@@H]2CC[C@H]([C@H](C)CCC(=O)O)[C@@]12C .
[reply] 25.3 µM

[ask] Report the value of TGI obtained on CAKI-1 renal for O=C(Nc1ccc(Cl)c(Cl)c1)C1C(=O)N(c2ccc(Cl)c(Cl)c2)C(=O)/C1=N\O (stereo not drawn) .
[reply] > 100 µM

[ask] Report the value of TGI obtained on CAKI-1 renal for CCOC(=O)n1c2ccccc2c(=O)n1CCO .
[reply] > 100 µM

[ask] Report the value of TGI obtained on CAKI-1 renal for CC1CCN(c2cc(-c3cc4ccccc4o3)oc(=O)c2C#N)CC1 .
[reply] > 100 µM

[ask] Report the value of TGI obtained on CAKI-1 renal for COc1cc2c(cc1OC)C(SC)C(=O)N(Cc1cccc(OC)c1OC)CC2 (stereo not drawn) .
[reply] > 88.5 µM

[ask] Report the value of TGI obtained on CAKI-1 renal for O=C(Nc1ccc(Br)cc1)Nc1cccc(Br)c1 .
[reply] > 100 µM

[ask] Report the value of TGI obtained on CAKI-1 renal for CN1CC[C@]23c4c5ccc(O)c4OC2c2[nH]ncc2C[C@H]3[C@H]1C5 (stereo partly drawn) .
[reply] > 100 µM

[ask] Report the value of TGI obtained on CAKI-1 renal for CC(=O)OC1CC[C@@]2(C)C(=CC[C@@H]3[C@@H]2CC[C@]2(C)C(OC(C)=O)[C@H](n4ccnc4)C[C@@H]32)C1 (stereo partly drawn) .
[reply] > 100 µM

[ask] Report the value of TGI obtained on CAKI-1 renal for COc1ccc(/C=N/n2c(Cc3ccccc3)n[nH]c2=O)cc1 .
[reply] > 100 µM
